- subject_of_test: CDK12/CycK (Homo sapiens)
- Sequence (Q9NYV4 whole entry): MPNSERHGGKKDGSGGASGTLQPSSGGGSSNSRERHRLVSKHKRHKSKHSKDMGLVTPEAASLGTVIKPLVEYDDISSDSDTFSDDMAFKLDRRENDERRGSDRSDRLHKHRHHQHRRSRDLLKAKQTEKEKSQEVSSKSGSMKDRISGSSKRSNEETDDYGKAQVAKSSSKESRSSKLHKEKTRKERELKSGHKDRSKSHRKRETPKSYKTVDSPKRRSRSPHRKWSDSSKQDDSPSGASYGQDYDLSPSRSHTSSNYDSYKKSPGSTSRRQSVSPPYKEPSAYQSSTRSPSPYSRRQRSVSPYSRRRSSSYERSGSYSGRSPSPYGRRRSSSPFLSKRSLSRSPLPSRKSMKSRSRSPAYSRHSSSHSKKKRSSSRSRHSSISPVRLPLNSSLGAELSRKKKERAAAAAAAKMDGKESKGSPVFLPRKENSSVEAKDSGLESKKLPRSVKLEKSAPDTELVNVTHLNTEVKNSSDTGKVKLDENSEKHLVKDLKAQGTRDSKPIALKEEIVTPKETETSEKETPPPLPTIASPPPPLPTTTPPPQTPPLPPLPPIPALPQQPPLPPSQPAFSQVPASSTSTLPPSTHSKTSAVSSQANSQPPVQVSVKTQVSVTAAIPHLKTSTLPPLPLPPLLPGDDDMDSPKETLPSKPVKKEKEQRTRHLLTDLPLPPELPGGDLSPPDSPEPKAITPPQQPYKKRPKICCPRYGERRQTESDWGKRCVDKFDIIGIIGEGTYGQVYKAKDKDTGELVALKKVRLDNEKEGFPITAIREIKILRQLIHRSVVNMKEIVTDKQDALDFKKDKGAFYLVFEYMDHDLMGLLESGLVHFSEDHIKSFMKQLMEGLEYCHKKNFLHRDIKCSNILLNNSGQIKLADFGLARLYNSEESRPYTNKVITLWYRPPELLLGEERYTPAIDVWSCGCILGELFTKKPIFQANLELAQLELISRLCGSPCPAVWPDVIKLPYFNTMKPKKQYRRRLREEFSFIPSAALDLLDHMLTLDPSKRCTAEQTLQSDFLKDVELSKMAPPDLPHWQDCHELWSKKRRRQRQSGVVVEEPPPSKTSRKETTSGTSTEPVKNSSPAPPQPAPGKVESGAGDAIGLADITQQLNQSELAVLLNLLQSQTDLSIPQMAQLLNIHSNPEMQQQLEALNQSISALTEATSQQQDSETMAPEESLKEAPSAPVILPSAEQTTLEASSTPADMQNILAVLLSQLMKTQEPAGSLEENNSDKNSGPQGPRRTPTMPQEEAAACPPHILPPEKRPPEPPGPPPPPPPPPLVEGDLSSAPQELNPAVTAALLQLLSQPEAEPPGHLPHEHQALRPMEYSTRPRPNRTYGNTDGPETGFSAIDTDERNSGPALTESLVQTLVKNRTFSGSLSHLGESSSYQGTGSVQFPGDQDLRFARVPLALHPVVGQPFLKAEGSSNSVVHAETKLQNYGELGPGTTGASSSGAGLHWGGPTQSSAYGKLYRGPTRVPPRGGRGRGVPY
- Sequence (O75909 whole entry partner): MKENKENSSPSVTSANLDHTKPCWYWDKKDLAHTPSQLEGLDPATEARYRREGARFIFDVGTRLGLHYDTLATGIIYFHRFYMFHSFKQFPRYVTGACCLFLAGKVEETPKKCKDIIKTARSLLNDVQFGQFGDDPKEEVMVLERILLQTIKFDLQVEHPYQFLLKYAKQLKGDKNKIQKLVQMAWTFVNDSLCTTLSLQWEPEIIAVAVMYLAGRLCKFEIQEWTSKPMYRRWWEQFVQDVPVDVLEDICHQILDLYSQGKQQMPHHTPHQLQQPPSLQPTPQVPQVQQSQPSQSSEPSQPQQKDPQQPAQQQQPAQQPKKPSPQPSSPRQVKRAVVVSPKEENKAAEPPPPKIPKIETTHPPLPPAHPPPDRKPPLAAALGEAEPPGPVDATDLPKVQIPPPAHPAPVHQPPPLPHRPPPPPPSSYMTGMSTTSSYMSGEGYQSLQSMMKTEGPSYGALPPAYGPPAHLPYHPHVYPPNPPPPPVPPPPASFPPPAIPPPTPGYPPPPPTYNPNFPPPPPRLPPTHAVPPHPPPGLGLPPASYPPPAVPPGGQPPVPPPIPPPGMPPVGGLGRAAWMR
- measurement_notes: Inhibition of CDK12 (ADP-Glo kinase assay)
- run_parameters: 60 nM CDK12/CycK, 30 minutes pre-incubation, 1 μM ATP, 0.5 μM RBER-IRStide substrate, 1 h at 25° C., read-out: CDK12/cyclin K IC50
pIC50: −log10 of the molar value.
measure: pIC50

# molecule, pIC50
data = [
    ("c1cnc2ncc(-c3ccnc4[nH]ccc34)n2c1", "4.52 to 6.00"),
    ("C=CC(=O)N1CCC[C@@H](C(=O)NCCc2cc3c(-c4cnn5ncccc45)ccnc3[nH]2)C1", "> 7.00"),
    ("COc1ccc2c(-c3ccnc4[nH]ccc34)cnn2n1", "4.52 to 6.00"),
]

Please supply pIC50 for each of the following items, keeping them in order.
1. C=CC(=O)N1CC[C@H](C(=O)NCc2cc3c(-c4cnn5ncccc45)ccnc3[nH]2)C1
2. C=CC(=O)NC(C)C(=O)NCCc1cc2c(-c3cnn4ncccc34)ccnc2[nH]1 (centres unmarked)

Result:
1. 4.52 to 6.00
2. 6.00 to 7.00

Items follow; give pIC50 for each.
1. CN(C)C/C=C/C(=O)Nc1ccc(C(=O)NCc2cc3c(-c4cnn5ncccc45)ccnc3[nH]2)cc1
2. C=CC(=O)NCC(=O)N1CCC(c2cc3c(-c4cnn5ncccc45)ccnc3[nH]2)C1 (centres unmarked)
3. CN(C)C/C=C/C(=O)N1CCC[C@@H](C(=O)N2CCC(c3cc4c(-c5cnn6ncccc56)ccnc4[nH]3)C2)C1 (some centres unmarked)

Result:
6.00 to 7.00
> 7.00
6.00 to 7.00

# credit: patent US11407767B2
